- assay notes: Solubility of the compound at pH 6.8 after 24 hrs by shake flask method
- Assay type: physicochemical
- study conditions: buffer
readout type: log10(solubility thermodynamic at 24 h) (log10 of the value in µM)

>>> experimental_value("CN(C)Cc1cc(O)c(-c2ccccc2)c(=O)[nH]1")
2.83
>>> experimental_value("O=c1[nH]c(CC2CC2)cc(O)c1-c1ccccc1")
2.95
>>> experimental_value("CC1(C)CCC(Cc2cc(O)c(-c3ccccc3)c(=O)[nH]2)CC1")
1.40
>>> experimental_value("O=c1[nH]c(Cc2ccccc2)cc(O)c1-c1ccccc1")
1.60
>>> experimental_value("CC(C)Cc1cc(O)c(-c2ccccc2)c(=O)[nH]1")
2.74

These data points were gathered from ChEMBL document CHEMBL3739268.
